test system: HT29 colon; assay: NCI-60 one-dose screen, 48 h (100 = growth as untreated, 0 = no growth, -100 = all killed); details: 10 µM
About 83,000 compounds went through this panel and 20% of them were active in at least one assay; those are over-represented in the sample as a whole.
Lab note: compare growth against 80%. Equal or greater, write Yes. Smaller, write No.

Problem: Could you verify whether the entry N#Cc1ccc(NC(=O)CSc2ccc(-c3ccc(Br)cc3)nn2)cc1 shows growth of no less than 80%?
Result: Yes

Problem: Try this molecule next: CN1C(=O)/C(=C/c2nccs2)SC1=S
Result: Yes

Problem: Same question, CC(=O)Nc1nc(-c2ccc(N3CCN(C)CC3)c(NS(=O)(=O)c3ccc(C(F)(F)F)cc3)c2)cs1 this time
Result: No

Problem: Try CC(C)c1ccc(C(=O)Nc2sc3c(c2C(N)=O)CCC(=O)C3=O)cc1 next.
Result: Yes

Problem: Now the same for CCCS(=O)(=O)c1oc(-c2ccc(F)cc2)nc1S(=O)(=O)c1ccc(F)cc1
Result: No

Problem: Entry to check: COC(=O)C(Cc1ccc(O)c(O)c1)NC(=O)C(CSC/C=C(\C)CCCC(C)CCCC(C)CCCC(C)C)NC(C)=O (centres undefined)
Result: No

Problem: Then this molecule: O=C(c1ccc([N+](=O)[O-])c([N+](=O)[O-])c1O)n1[nH]c(=O)c2ccccc2c1=O
Result: No

Problem: Try COc1ccc(N2N=C(c3ccc4c(c3)OCCO4)CC2c2cccc(NC(=O)CCCNS(=O)(=O)c3ccc(F)cc3)c2)cc1 (centres undefined) next.
Result: Yes

Problem: And O=C(N/C(=C1/OCCN1Cc1ccccc1)[P+](c1ccccc1)(c1ccccc1)c1ccccc1)c1ccccc1 ?
Result: No
